The reader will find reported % inhibition values listed item by item below.
- Tested on: human Factor 11 mRNA
- test-protocol: Antisense inhibition of human Factor 11 in HepG2 cells by microwalk gapmers, lipofectin, 75 nM (Example 3)
- Type: cell-based
- details: HepG2, lipofectin, ~24 h, gapmers targeted to nucleobases 656 to 704 of SEQ ID NO: 1
Strand notation (5' to 3'): a small letter for the sugar, then the base; units joined by * are phosphorothioate-linked, units joined directly phosphodiester-linked; [ ] holds rarer units or linkages, { } end groups; capitals alone tell only the bases. e = 2'-O-(2-methoxyethyl) (MOE); [5mC] = 5-methylcytosine; d = 2'-deoxy (DNA)
endpoint-name: % inhibition (%)

                                  substance  unit_text  reported_measurement
0  416879 (antisense eA*eG*eG*dT*d[5mC]*d[5mC]*dA*d[5mC]*dA*dT*dA*dA*dA*dT*dG*dT*d[5mC]*eT*eT*eT) [compound 416879]          %                    92
1  416959 (antisense eT*e[5mC]*dT*dA*dG*dG*dT*d[5mC]*d[5mC]*dA*d[5mC]*dA*dT*dA*dA*eA*eT*eG*eT*e[5mC]) [compound 416959]          %                    25
2  416946 (antisense eA*eA*dA*dT*dG*dT*d[5mC]*dT*dT*dT*dG*dT*dT*dG*d[5mC]*eA*eA*eG*e[5mC]*eG) [compound 416946]          %                    86
